Consider the following compounds and their measured melting point readings.
ASSAY READOUT: melting point

1) Cn1cc(/C=C2\Oc3cc(O)cc(O)c3C2=O)c2c(N3CCCCCC3)ccnc21 [Compound 65] ... 297 to 300 °C
2) Cn1cc(/C=C2\Oc3cc(O)cc(O)c3C2=O)c2c(-c3cccc(S(C)(=O)=O)c3)ccnc21 [Compound 74] ... 315 to 320 °C
3) CN1CC2CC1CN2C(=O)C1CCN(c2ccnc3c2c(/C=C2\Oc4ccc(NC(=O)Nc5cccnc5)cc4C2=O)cn3C)CC1 (stereo not drawn) [Compound 272] ... 151 to 164 °C
4) CN1CCN(C(=O)C2CCN(c3ccnc4c3c(/C=C3\Oc5cccc(O)c5C3=O)cn4C)CC2)CC1 [Compound 164] ... 239 to 244 °C
5) CN(C)C(=O)C1CCN(c2ccnc3c2c(/C=C2\Oc4cccc(O)c4C2=O)cn3C)CC1 [Compound 145] ... 185 to 195 °C
6) CC1CN(c2ccnc3c2c(/C=C2\Oc4cccc(O)c4C2=O)cn3C)CC(C)O1 (stereo not drawn) [Compound 93] ... 280 °C
7) COCC1CN(C(=O)C2CCN(c3ccnc4c3c(/C=C3\Oc5ccc(NC(=O)Nc6cccnc6)cc5C3=O)cn4C)CC2)CCO1 (stereo not drawn) [Compound 308] ... 206 to 210 °C
8) Cn1cc(/C=C2\Oc3cccc(O)c3C2=O)c2c(N3CCC(C(=O)NCCO)CC3)ccnc21 [Compound 148] ... 232 to 242 °C
9) Cn1cc(/C=C2\Oc3cccc(O)c3C2=O)c2c(N3CC4(C)CC3CC(C)(C)C4)ccnc21 (stereo not drawn) [Compound 105] ... 220 to 223 °C
10) Cn1cc(/C=C2\Oc3ccc(NC(=O)Nc4cccnc4)cc3C2=O)c2c(N3CCC(C(=O)N4CC5CCC(C4)O5)CC3)ccnc21 [Compound 250] ... 260 to 265 °C
11) Cn1cc(/C=C2\Oc3ccc(NC(=O)Nc4cccnc4)cc3C2=O)c2c(N3CC4CCC(C3)O4)ccnc21 [Compound 167] ... 226 to 230 °C
12) CNC(=O)c1ccc(-c2ccnc3c2c(/C=C2\Oc4cccc(O)c4C2=O)cn3C)cc1 [Compound 132] ... 175 °C
13) Cn1cc(/C=C2\Oc3cccc(O)c3C2=O)c2c(N3CCN(C(=O)N4CCCC4)CC3)ccnc21 [Compound 104] ... 223 to 225 °C
14) CN(C)C(=O)C1CCN(c2ccnc3c2c(/C=C2\Oc4ccc(Br)cc4C2=O)cn3C)CC1 [Compound 169] ... 241 °C
15) Cn1cc(/C=C2\Oc3cc(O)cc(O)c3C2=O)c2c(-c3ccc(S(C)(=O)=O)cc3)ccnc21 [Compound 72] ... 276 to 286 °C
16) CNC(=O)Nc1ccc(-c2ccnc3c2c(/C=C2\Oc4cccc(O)c4C2=O)cn3C)cc1 [Compound 133] ... 298 to 305 °C (dec.)
17) Cn1cc(/C=C2\Oc3cccc(O)c3C2=O)c2c(-c3cccc(C(=O)N4CCCC4)c3)ccnc21 [Compound 103] ... 233 to 235 °C
18) CC(=O)c1ccc(-c2ccnc3c2c(/C=C2\Oc4cccc(O)c4C2=O)cn3C)cc1 [Compound 134] ... 250 to 253 °C
19) Cn1cc(/C=C2\Oc3cccc(O)c3C2=O)c2c(N3CCC(CN)CC3)ccnc21 [Compound 115] ... 230 to 238 °C
20) Cn1cc(/C=C2\Oc3cc(O)cc(O)c3C2=O)c2c(-c3ccc(Cl)nc3)ccnc21 [Compound 63] ... 340 °C
21) Cn1cc(/C=C2\Oc3ccc(NC(=O)NCCCCl)cc3C2=O)c2c(N3CC4CCC(C3)O4)ccnc21 [Compound 240] ... 234 to 241 °C
22) Cn1cc(/C=C2\Oc3cccc(O)c3C2=O)c2c(-c3cccc(OC(F)(F)F)c3)ccnc21 [Compound 110] ... 230 to 233 °C
23) CNC(=O)Nc1ccc2c(c1)C(=O)/C(=C/c1cn(C)c3nccc(N4CCC(C(=O)N5CCOCC5)CC4)c13)O2 [Compound 174] ... 235 to 240 °C
24) Cn1cc(/C=C2\Oc3ccc(C(=O)O)cc3C2=O)c2c(N3CC4CCC(C3)O4)ccnc21 [Compound 197] ... 285 to 289 °C
25) Cn1cc(/C=C2\Oc3cccc(O)c3C2=O)c2c(N3CC4CC3CO4)ccnc21 (stereo not drawn) [Compound 117] ... 258 to 263 °C
26) COCCN1CCN(C(=O)c2ccc(-c3ccnc4c3c(/C=C3\Oc5cccc(O)c5C3=O)cn4C)cc2)CC1 [Compound 304] ... 118 to 122 °C
27) CNC(=O)Nc1ccc2c(c1)C(=O)/C(=C/c1cn(C)c3nccc(N4CC5CCC(C4)O5)c13)O2 [Compound 131] ... 247 to 255 °C
28) Cn1cc(/C=C2\Oc3ccc(NC(=O)Nc4cccnc4)cc3C2=O)c2c(N3CCOC(C)(C)C3)ccnc21 [Compound 301] ... 222 to 226 °C
29) CNC(=O)Nc1ccc2c(c1)C(=O)/C(=C/c1cn(C)c3nccc(N4C5CCC4COC5)c13)O2 [Compound 281] ... 226 to 232 °C (dec.)
30) CN(C)C(=O)Nc1ccc2c(c1)C(=O)/C(=C/c1cn(C)c3nccc(-c4ccccc4)c13)O2 [Compound 161] ... 275 to 280 °C

###

Counter-ions that a name gives are not always drawn.
ASSAY READOUT: melting point

1. Cn1cc(/C=C2\Oc3cc(O)cc(O)c3C2=O)c2c(N3CCCC3)ccnc21 ... 312 to 315 °C
2. Cn1cc(/C=C2\Oc3cc(O)cc(O)c3C2=O)c2c(-c3ccc(Cl)cc3)ccnc21 ... 345 °C
3. COCCN(C)CCCNC(=O)Nc1ccc2c(c1)C(=O)/C(=C/c1cn(C)c3nccc(N4CC5CCC(C4)O5)c13)O2 ... 158 to 163 °C
4. CN(C)C1CCN(c2ccnc3c2c(/C=C2\Oc4cccc(O)c4C2=O)cn3C)C1 (stereo not drawn) ... 205 °C
5. COCC1CN(C(=O)c2ccc(-c3ccnc4c3c(/C=C3\Oc5cccc(O)c5C3=O)cn4C)cc2)CCO1 (stereo not drawn) ... 222 to 226 °C
6. Cn1cc(/C=C2\Oc3cccc(O)c3C2=O)c2c(-c3ccc(N4CC5CCC(C4)O5)cc3)ccnc21 ... 252 to 260 °C (dec.)
7. Cn1cc(/C=C2\Oc3ccc(NC(=O)Nc4cccnc4)cc3C2=O)c2c(N3CCC(C(=O)N4C5CCCC4COC5)CC3)ccnc21 ... 210 to 215 °C
8. Cn1cc(/C=C2\Oc3cccc(O)c3C2=O)c2c(N3CCC(C(N)=O)CC3)ccnc21 ... 280 to 287 °C
9. C[C@@H]1CN(C(=O)c2ccc(-c3ccnc4c3c(/C=C3\Oc5cccc(O)c5C3=O)cn4C)cc2)C[C@H](C)O1 ... 262 to 270 °C
10. Cn1cc(/C=C2\Oc3ccc(NC(=O)Nc4cccnc4)cc3C2=O)c2c(N3CCC(C(=O)N4C5CCC4COC5)CC3)ccnc21 ... 197 to 203 °C
11. CN1CCN(C(=O)Nc2ccc3c(c2)C(=O)/C(=C/c2cn(C)c4nccc(-c5ccccc5)c24)O3)CC1 ... 211 to 213 °C
12. Cn1cc(/C=C2\Oc3cccc(O)c3C2=O)c2c(N3CCC(C(=O)N4CCN(CCO)CC4)CC3)ccnc21 ... 136 to 140 °C
13. CN(C)C(=O)Nc1ccc(-c2ccnc3c2c(/C=C2\Oc4cccc(O)c4C2=O)cn3C)cc1 ... 235 to 238 °C
14. CN(C)C(=O)C1CCN(c2ccnc3c2c(/C=C2\Oc4ccc(NC(=O)C(F)(F)F)cc4C2=O)cn3C)CC1 ... 236 to 240 °C
15. CN(C)C(=O)C1CCN(c2ccnc3c2c(/C=C2\Oc4ccc(NC(=O)Nc5cccnc5)cc4C2=O)cn3C)CC1 ... 165 to 175 °C (dec.)
16. Cn1cc(/C=C2\Oc3cccc(O)c3C2=O)c2c(N3CC4CC3CN4)ccnc21 (stereo not drawn) ... 325 °C
17. CN(C)C(=O)C1CCN(c2ccnc3c2c(/C=C2\Oc4ccc(NC(=O)N5CCOCC5)cc4C2=O)cn3C)CC1 ... 128 °C
18. Cn1cc(/C=C2\Oc3ccc(NC(=O)Nc4cccnc4)cc3C2=O)c2c(N3CC4CCC3CO4)ccnc21 (stereo not drawn) ... 227 to 235 °C
19. Cn1cc(/C=C2\Oc3ccc(NC(=O)Nc4cccnc4)cc3C2=O)c2c(N3CC4CNCC(C3)O4)ccnc21 ... 193 to 200 °C
20. Cn1cc(/C=C2\Oc3ccc(NC(=O)C(F)(F)F)cc3C2=O)c2c(-c3ccccc3)ccnc21 ... 295 to 302 °C
21. CCOC(=O)Nc1ccc2c(c1)C(=O)/C(=C/c1cn(C)c3nccc(N4CCC(C(=O)N(C)C)CC4)c13)O2 (as salt: Na) ... 162 to 167 °C
22. COc1ccc(-c2ccnc3c2c(/C=C2\Oc4cccc(O)c4C2=O)cn3C)cn1 ... 242 to 244 °C
23. Cn1cc(/C=C2\Oc3cccc(NC(=O)C(C)(C)C)c3C2=O)c2c(-c3ccccc3)ccnc21 ... 251 to 253 °C
24. Cn1cc(/C=C2\Oc3cccc(O)c3C2=O)c2c(-c3cccc(C(F)(F)F)c3)ccnc21 ... 262 to 265 °C
25. Cn1cc(/C=C2\Oc3cccc(O)c3C2=O)c2c(-c3ccc(C(F)(F)F)cc3)ccnc21 ... 244 to 254 °C
26. Cn1cc(/C=C2\Oc3cccc(O)c3C2=O)c2c(O)ccnc21 ... 325 °C
27. Cn1cc(/C=C2\Oc3cc(O)cc(O)c3C2=O)c2c(-c3cncnc3)ccnc21 ... 340 °C
28. Cn1cc(/C=C2\Oc3cccc(O)c3C2=O)c2c(N3CCSCC3)ccnc21 ... 285 to 290 °C
29. Cn1cc(/C=C2\Oc3ccc(O)cc3C2=O)c2c(-c3ccccc3)ccnc21 ... 352 to 354 °C (dec.)
30. Cn1cc(/C=C2\Oc3cc(O)cc(F)c3C2=O)c2c(-c3ccccc3)ccnc21 ... 325 to 327 °C (dec.)
